- assay notes: Drug release assay (hydrolysis rate test in pH 7.4 / pH 2.0 buffer, HPLC)
- Assay type: physicochemical
- cond: pH 2.0; Kh=-ln[100%-Release rate (%)]/t
- Procedure: Preparation of pH2.0 Buffer Solution Preparation of pH7.4 Buffer Solution Method of Hydrolysis Rate Test […] The release rates (%) were calculated using the following equation: Release rate (%)=[A(0h)−A(xh)]/A(0h)×100%, (x=0, 0.5, 6), A(xh) is the peak area of compounds tested by HPLC at the indicated time point. The hydrolysis constants (Kh) were calculated using the following equation: Hydrolysis constant Kh=−ln[100%−Release rate (%)]/t Results
Friendly reminder: Hydrolysis constant Kh pH 2.0 below 0.08 is label 1, at or above is label 0.

Worked cases, answers included:
smiles structure: CCCCCCOC(=O)OCn1cc(F)c(=O)[nH]c1=O
class assignment: label 1
//
smiles structure: CCCc1ccc(N2CCC(Cc3ccc(OC(=O)OCn4cc(F)c(=O)[nH]c4=O)cc3)CC2)cc1
class assignment: label 1
//
smiles structure: CCCCN1CCC(c2ccc(OC(=O)Oc3ccc4nc5c(c(CC)c4c3)Cn3c-5cc4c(c3=O)COC(=O)[C@]4(O)CC)cc2)CC1
class assignment: label 0

Task: Please determine if CCCCC1CCN(c2ccc(CCOC(=O)n3cc(F)c(=O)[nH]c3=O)cc2)CC1 is below 0.08 in terms of Hydrolysis constant Kh pH 2.0.
Output: label 1

Task: Please determine if CCc1c2c(nc3ccc(OC(=O)[C@@H]4CCCN4C(c4ccccc4)c4ccccc4)cc13)-c1cc3c(c(=O)n1C2)COC(=O)[C@]3(O)CC is below 0.08 in terms of Hydrolysis constant Kh pH 2.0.
Output: label 1

Task: Please determine if Cc1cc(C)cc(N2CCC(c3ccc(OC(=O)OCn4cc(F)c(=O)[nH]c4=O)cc3)CC2)c1 is below 0.08 in terms of Hydrolysis constant Kh pH 2.0.
Output: label 1
